Measured IC50 on plasmin (Homo sapiens, UniProt P00747) follows.
Sequence (P00747 581-810 limits assumed): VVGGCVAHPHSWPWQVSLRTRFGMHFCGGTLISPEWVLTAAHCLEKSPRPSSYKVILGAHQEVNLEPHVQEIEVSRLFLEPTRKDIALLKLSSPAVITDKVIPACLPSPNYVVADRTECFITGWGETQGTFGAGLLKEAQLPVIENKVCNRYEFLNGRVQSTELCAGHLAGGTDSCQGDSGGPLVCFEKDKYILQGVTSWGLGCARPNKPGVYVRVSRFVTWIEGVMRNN
Sequence (P00747 97-580 partner limits assumed): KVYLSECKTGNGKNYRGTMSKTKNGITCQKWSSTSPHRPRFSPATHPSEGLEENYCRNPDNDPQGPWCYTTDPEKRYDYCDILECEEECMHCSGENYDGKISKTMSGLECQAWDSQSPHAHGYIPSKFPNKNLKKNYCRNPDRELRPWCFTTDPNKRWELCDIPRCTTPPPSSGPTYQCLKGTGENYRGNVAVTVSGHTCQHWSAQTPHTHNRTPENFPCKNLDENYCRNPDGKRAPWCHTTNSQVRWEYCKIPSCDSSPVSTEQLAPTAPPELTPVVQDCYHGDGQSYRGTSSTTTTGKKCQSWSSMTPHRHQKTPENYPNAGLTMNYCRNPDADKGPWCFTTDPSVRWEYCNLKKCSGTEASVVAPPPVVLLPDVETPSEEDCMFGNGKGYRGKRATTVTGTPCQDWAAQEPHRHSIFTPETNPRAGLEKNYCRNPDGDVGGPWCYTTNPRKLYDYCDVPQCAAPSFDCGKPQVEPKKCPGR
Write the number in µM without appending the unit.

| molecule | display unit | IC50 |
| --- | --- | --- |
| N=C(N)c1ccc2cc(OC(=O)CCCCCN)ccc2c1 [Compound No. 17, 6-amidino-2-naphthyl ε-aminocaproate] | µM | 40 |
| N=C(N)c1ccc2cc(OC(=O)[C@H]3CC[C@H](CNC(=O)OCc4ccccc4)CC3)ccc2c1 | µM | 0.8 |
| CCCCCCCCCC(=O)Oc1ccc2cc(C(=N)N)ccc2c1 [Compound No. 5, 6-amidino-2-naphthyl caprate] | µM | 10 |
| N=C(N)c1ccc2cc(OC(=O)C3CCCCC3)ccc2c1 | µM | 10 |

Task: Requested read-out IC50, target or system plasmin (Homo sapiens, UniProt P00747), entry CCCCCC(=O)Oc1ccc2cc(C(=N)N)ccc2c1 [compound 4, 6-amidino-2-naphthyl caproate]
Result: 20

Task: Requested read-out IC50, target or system plasmin (Homo sapiens, UniProt P00747), entry `N=C(N)c1ccc2cc(OC(=O)CCCCCNC(=O)OCc3ccccc3)ccc2c1`
Result: 3

Task: Requested read-out IC50, target or system plasmin (Homo sapiens, UniProt P00747), entry CCCC(=O)Oc1ccc2cc(C(=N)N)ccc2c1 [Compound No. 2, 6-amidino-2-naphthyl n-butyrate]
Result: 30
